Values compiled from patent US20120088759A1.

Molecular target: UniProtKB O43613
Sequence (O43613 1-425): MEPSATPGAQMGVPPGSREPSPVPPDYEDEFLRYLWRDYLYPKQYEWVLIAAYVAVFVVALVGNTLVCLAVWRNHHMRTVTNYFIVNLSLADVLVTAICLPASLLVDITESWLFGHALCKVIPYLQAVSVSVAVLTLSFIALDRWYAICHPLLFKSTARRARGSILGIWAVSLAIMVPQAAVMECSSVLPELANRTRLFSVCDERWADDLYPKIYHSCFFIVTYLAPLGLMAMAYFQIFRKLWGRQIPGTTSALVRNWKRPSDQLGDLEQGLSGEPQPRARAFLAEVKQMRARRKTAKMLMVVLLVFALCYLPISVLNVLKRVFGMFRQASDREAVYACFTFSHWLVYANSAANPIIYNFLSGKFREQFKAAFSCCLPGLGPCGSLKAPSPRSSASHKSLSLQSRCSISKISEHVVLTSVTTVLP
Assay: FLIPR intracellular calcium assay, orexin receptor antagonistic activity (OX1)
Details: CHO cells expressing human orexin-1 receptor; 3 nM orexin-A; normalized to on-plate reference; *n = geometric mean from n values
Exam item: assign Y to entries whose IC50 is below 1 µM and N to entries at or above 1 µM. Note that a value of exactly 1 µM receives N.

>>> classification("CCOc1ccc(CN2C(=O)CSC2c2c(OC)ccc3c2OCCO3)cc1 (centres unmarked) [Example 9]")
"Y"
>>> classification("CCOc1ccc(CN2C(=O)CS(=O)(=O)C2c2c(OC)cccc2OC)cc1 (centres unmarked) [Example 290]")
"Y"
>>> classification("CCOc1ccc(CN2C(=O)CSC2c2c(OC)ccnc2OC)cc1 (centres unmarked) [Example 26]")
"N"
>>> classification("CCOc1ccc(CN2C(=O)CSC2c2c(OC)ccc3cccnc23)cc1 (centres unmarked) [Example 21]")
"N"
>>> classification("CCOc1ccc(CN2C(=O)CSC2c2c(OC)ccc3c(C)noc23)cc1 (centres unmarked) [Example 19]")
"N"
